Values compiled from the supplement of paper PMC10567573.

B1: KRT71 (parent)
chain: FGSRSLYSLGGVRSLNVASGSGKS

- Variants of: B1
- TEST DESCRIPTION: protein stability index of a GFP-peptide fusion (GPS, HEK-293T) (PSI 1-6); higher = more stable;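 further: lentivirally expressed fusions sorted by FACS into six bins by GFP to DsRed ratio, PSI derived from sequencing read proportions per bin multiplied by bin number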
- TEST CONTEXT: c terminus: a fixed tail appended
Rule: protein stability index of 2 or more gives condition met; anything lower gives condition not met.

- G20C: condition not met
- R13K: condition not met
- L6G: condition not met
- A18F: condition not met
- S8N: condition met

Threshold query (protein stability index >= 2) on R4C condition met

Would you say S8Y shows protein stability index at minimum 2? condition not met

# bool: protein stability index of S24L >= 2 condition not met

// inclusive: protein stability index at least 2? input: S3I condition met

Check if protein stability index >= 2 (inclusive). Item: V17T condition met

Given V12P , state whether its protein stability index is at least 2. condition met
